Entries and their relative viability values follow.
# Tested on: NCI-H2228
# PROCEDURE_TEXT: relative viability (nuclei count vs DMSO), 5 days (fraction); higher = more cells survive
# EXPERIMENTAL_CONDITIONS: first compound 0.000632 µM
A bare number is all that is needed in reply.

Use the examples below as a reference point.
>  <COMPOUND>
CC(=O)O[C@@]12CO[C@@H]1C[C@H](O)[C@@]1(C)C(=O)[C@H](O)C3=C(C)[C@@H](OC(=O)[C@H](O)[C@@H](NC(=O)OC(C)(C)C)c4ccccc4)C[C@@](O)([C@@H](OC(=O)c4ccccc4)[C@H]21)C3(C)C [Docetaxel] + CC(=O)Nc1cccc(-n2c(=O)n(C3CC3)c(=O)c3c(Nc4ccc(I)cc4F)n(C)c(=O)c(C)c32)c1 [Trametinib] (partner 0.02 µM)

>  <RECORDED_RESULT>
0.233

$$$$
>  <COMPOUND>
CC(=O)O[C@@]12CO[C@@H]1C[C@H](O)[C@@]1(C)C(=O)[C@H](O)C3=C(C)[C@@H](OC(=O)[C@H](O)[C@@H](NC(=O)OC(C)(C)C)c4ccccc4)C[C@@](O)([C@@H](OC(=O)c4ccccc4)[C@H]21)C3(C)C [Docetaxel] + CC(=O)c1c(C)c2cnc(Nc3ccc(N4CCNCC4)cn3)nc2n(C2CCCC2)c1=O [Palbociclib] (partner 0.5 µM)

>  <RECORDED_RESULT>
0.251

$$$$

Now turn to the next compound.
Q: Input CC(=O)O[C@@]12CO[C@@H]1C[C@H](O)[C@@]1(C)C(=O)[C@H](O)C3=C(C)[C@@H](OC(=O)[C@H](O)[C@@H](NC(=O)OC(C)(C)C)c4ccccc4)C[C@@](O)([C@@H](OC(=O)c4ccccc4)[C@H]21)C3(C)C [Docetaxel] + O=C(c1cc(Cc2n[nH]c(=O)c3ccccc23)ccc1F)N1CCN(C(=O)C2CC2)CC1 [Olaparib] (partner 8 µM) , output reported relative viability.
Result: 0.275

====

# Tested on: PC-14
# PROCEDURE_TEXT: relative viability (nuclei count vs DMSO), 5 days (fraction); higher = more cells survive
# EXPERIMENTAL_CONDITIONS: first compound 0.1581 µM
VALUE_TYPE: relative viability
A bare number is all that is needed in reply.

>  <MOLECULE>
COc1cc2nccc(Oc3ccc(NC(=O)Nc4cc(C)on4)c(Cl)c3)c2cc1OC [Tivozanib] + O=C(CCCCCCC(=O)Nc1ccccc1)NO [Vorinostat] (partner 1 µM)

>  <TARGET_UNDER_TEST>
PC-14

>  <relative viability>
0.695

$$$$

Q: Input COc1cc2nccc(Oc3ccc(NC(=O)Nc4cc(C)on4)c(Cl)c3)c2cc1OC [Tivozanib] + Nc1nc2[nH]cc(CCc3ccc(C(=O)N[C@@H](CCC(=O)O)C(=O)O)cc3)c2c(=O)[nH]1 [Pemetrexed] (partner 0.2 µM) , output reported relative viability.
Result: 0.155

Q: Input Nc1ccn([C@@H]2O[C@H](CO)[C@@H](O)[C@@H]2O)c(=O)n1 [Cytarabine] + CS(=O)(=O)CCNCc1ccc(-c2ccc3ncnc(Nc4ccc(OCc5cccc(F)c5)c(Cl)c4)c3c2)o1 [Lapatinib] (partner 2 µM) , output reported relative viability.
Result: 0.17

Q: Input Nc1ccn([C@@H]2O[C@H](CO)[C@@H](O)[C@@H]2O)c(=O)n1 [Cytarabine] + CC(=O)Nc1cccc(-n2c(=O)n(C3CC3)c(=O)c3c(Nc4ccc(I)cc4F)n(C)c(=O)c(C)c32)c1 [Trametinib] (partner 0.02 µM) , output reported relative viability.
Result: 0.0885

====

# Tested on: NCI-H1703
# PROCEDURE_TEXT: relative viability (nuclei count vs DMSO), 5 days (fraction); higher = more cells survive
# EXPERIMENTAL_CONDITIONS: first compound 2.53 µM
VALUE_TYPE: relative viability
A bare number is all that is needed in reply.

Use the examples below as a reference point.
>  <COMPOUND>
O=c1[nH]c2ccccc2n1C1CCN(CCCC(c2ccc(F)cc2)c2ccc(F)cc2)CC1 [Pimozide] + C[C@@H](Oc1cc(-c2cnn(C3CCNCC3)c2)cnc1N)c1c(Cl)ccc(F)c1Cl [Crizotinib] (partner 1 µM)

>  <RECORDED_RESULT>
0.403

$$$$
>  <COMPOUND>
O=c1[nH]c2ccccc2n1C1CCN(CCCC(c2ccc(F)cc2)c2ccc(F)cc2)CC1 [Pimozide] + CS(=O)(=O)CCNCc1ccc(-c2ccc3ncnc(Nc4ccc(OCc5cccc(F)c5)c(Cl)c4)c3c2)o1 [Lapatinib] (partner 2 µM)

>  <RECORDED_RESULT>
0.958

$$$$
>  <COMPOUND>
O=c1[nH]c2ccccc2n1C1CCN(CCCC(c2ccc(F)cc2)c2ccc(F)cc2)CC1 [Pimozide] + C[C@]1(O)C[C@@H](c2nc(-c3ccc4ccc(-c5ccccc5)nc4c3)c3c(N)nccn32)C1 [Linsitinib] (partner 1 µM)

>  <RECORDED_RESULT>
0.514

$$$$

Now turn to the next compound.
Q: Input O=c1[nH]c2ccccc2n1C1CCN(CCCC(c2ccc(F)cc2)c2ccc(F)cc2)CC1 [Pimozide] + NC(=O)Nc1cc(-c2cccc(F)c2)sc1C(=O)N[C@H]1CCCNC1 [AZD7762] (partner 0.2 µM) , output reported relative viability.
Result: 0.1

====

Entries and their relative viability values follow.
# Tested on: NCI-H358
# PROCEDURE_TEXT: relative viability (nuclei count vs DMSO), 5 days (fraction); higher = more cells survive
# EXPERIMENTAL_CONDITIONS: first compound 0.02 µM

>  <MOLECULE>
CC(=O)O[C@@]12CO[C@@H]1C[C@H](O)[C@@]1(C)C(=O)[C@H](O)C3=C(C)[C@@H](OC(=O)[C@H](O)[C@@H](NC(=O)OC(C)(C)C)c4ccccc4)C[C@@](O)([C@@H](OC(=O)c4ccccc4)[C@H]21)C3(C)C [Docetaxel] + O=C(CCCCCCC(=O)Nc1ccccc1)NO [Vorinostat] (partner 1 µM)

>  <VALUE_TYPE>
relative viability

>  <RECORDED_RESULT>
0.0606

$$$$
>  <MOLECULE>
CC(=O)O[C@@]12CO[C@@H]1C[C@H](O)[C@@]1(C)C(=O)[C@H](O)C3=C(C)[C@@H](OC(=O)[C@H](O)[C@@H](NC(=O)OC(C)(C)C)c4ccccc4)C[C@@](O)([C@@H](OC(=O)c4ccccc4)[C@H]21)C3(C)C [Docetaxel] + NC(=O)Nc1cc(-c2cccc(F)c2)sc1C(=O)N[C@H]1CCCNC1 [AZD7762] (partner 0.2 µM)

>  <VALUE_TYPE>
relative viability

>  <RECORDED_RESULT>
0.159

$$$$
>  <MOLECULE>
CC(=O)O[C@@]12CO[C@@H]1C[C@H](O)[C@@]1(C)C(=O)[C@H](O)C3=C(C)[C@@H](OC(=O)[C@H](O)[C@@H](NC(=O)OC(C)(C)C)c4ccccc4)C[C@@](O)([C@@H](OC(=O)c4ccccc4)[C@H]21)C3(C)C [Docetaxel] + C[C@]1(O)C[C@@H](c2nc(-c3ccc4ccc(-c5ccccc5)nc4c3)c3c(N)nccn32)C1 [Linsitinib] (partner 1 µM)

>  <VALUE_TYPE>
relative viability

>  <RECORDED_RESULT>
0.136

$$$$
>  <MOLECULE>
CC(=O)O[C@@]12CO[C@@H]1C[C@H](O)[C@@]1(C)C(=O)[C@H](O)C3=C(C)[C@@H](OC(=O)[C@H](O)[C@@H](NC(=O)OC(C)(C)C)c4ccccc4)C[C@@](O)([C@@H](OC(=O)c4ccccc4)[C@H]21)C3(C)C [Docetaxel] + N=C(N)NC(=N)NCCc1ccccc1 [Phenformin] (partner 250 µM)

>  <VALUE_TYPE>
relative viability

>  <RECORDED_RESULT>
0.0664

$$$$

Now turn to the next molecule.
Q: Input CC(=O)O[C@@]12CO[C@@H]1C[C@H](O)[C@@]1(C)C(=O)[C@H](O)C3=C(C)[C@@H](OC(=O)[C@H](O)[C@@H](NC(=O)OC(C)(C)C)c4ccccc4)C[C@@](O)([C@@H](OC(=O)c4ccccc4)[C@H]21)C3(C)C [Docetaxel] + Cc1nc(Nc2ncc(C(=O)Nc3c(C)cccc3Cl)s2)cc(N2CCN(CCO)CC2)n1 [Dasatinib] (partner 0.075 µM) , output reported relative viability.
Result: 0.0699

====

# System: NCI-H23
# PROCEDURE_TEXT: relative viability (nuclei count vs DMSO), 5 days (fraction); higher = more cells survive
# EXPERIMENTAL_CONDITIONS: first compound 0.1581 µM
VALUE_TYPE: relative viability
A bare number is all that is needed in reply.

>  <MOLECULE>
COc1cc2nccc(Oc3ccc(NC(=O)Nc4cc(C)on4)c(Cl)c3)c2cc1OC [Tivozanib] + C[C@]1(O)C[C@@H](c2nc(-c3ccc4ccc(-c5ccccc5)nc4c3)c3c(N)nccn32)C1 [Linsitinib] (partner 1 µM)

>  <RECORDED_RESULT>
0.317

$$$$
>  <MOLECULE>
COc1cc2nccc(Oc3ccc(NC(=O)Nc4cc(C)on4)c(Cl)c3)c2cc1OC [Tivozanib] + C[C@@H](Oc1cc(-c2cnn(C3CCNCC3)c2)cnc1N)c1c(Cl)ccc(F)c1Cl [Crizotinib] (partner 1 µM)

>  <RECORDED_RESULT>
0.461

$$$$
>  <MOLECULE>
Nc1ccn([C@@H]2O[C@H](CO)[C@@H](O)[C@@H]2O)c(=O)n1 [Cytarabine] + Nc1nc2[nH]cc(CCc3ccc(C(=O)N[C@@H](CCC(=O)O)C(=O)O)cc3)c2c(=O)[nH]1 [Pemetrexed] (partner 0.2 µM)

>  <RECORDED_RESULT>
0.172

$$$$

Now turn to the next molecule.
Q: Input COc1cc2nccc(Oc3ccc(NC(=O)Nc4cc(C)on4)c(Cl)c3)c2cc1OC [Tivozanib] + Cc1nc(NC(=O)N2CCC[C@H]2C(N)=O)sc1-c1ccnc(C(C)(C)C(F)(F)F)c1 [Alpelisib] (partner 2 µM) , output reported relative viability.
Result: 0.497
